Entry source: patent US4510307A

System: mesenteric artery
Assay: Relaxation of Mesenteric Artery (isolated rabbit mesenteric artery contracted with KCl)
Details: Oryctolagus cuniculus, concentration for 50% relaxation, KCl 15~20 mM contraction, read-out: Relaxation of Mesenteric Artery ED50
value.type: EC50 (nM)
One number for each entry, in nM.

molecule="COC(CN1CCN(S(=O)(=O)c2ccc3ncnc(N(C)C4CCCCC4)c3c2)CC1)c1ccccc1 (stereo not shown) [Compound (26)]" experimental_result=1400
molecule="CCOC(CN1CCN(S(=O)(=O)c2ccc3ncnc(N(C)C4CCCC4)c3c2)CC1)c1ccccc1 (stereo not shown) [Compound (18)]" experimental_result=1400
molecule="CCOC(CN1CCN(S(=O)(=O)c2ccc3ncnc(NC4CCCCC4)c3c2)CC1)c1ccccc1 (stereo not shown) [Compound (15)]" experimental_result=1600

Next, consider the following molecule.
Request - read-out EC50 | tested on mesenteric artery | molecule COC(CN1CCN(S(=O)(=O)c2ccc3ncnc(N4CCCCC4)c3c2)CC1)c1ccccc1 (stereo not shown) [Compound (5)]
5800

----------
Test: Acute toxicity, intravenous administration in mice
Settings: mouse, in vivo, male ddY-strain mice
Please assign N whenever LD50 is at or above 100 mg/kg, and Y whenever it is below.

compound="CCOC(CN1CCN(S(=O)(=O)c2ccc3ncnc(N(C)C4CCCCC4)c3c2)CC1)c1ccccc1 (stereo not drawn) [Compound (19)]" qualitative_label=Y
compound="NCCCCCCNS(=O)(=O)c1ccc2ncnc(N3CCCCC3)c2c1 [Compound (32)]" qualitative_label=Y
compound="CCCCN(CCCC)c1ncnc2ccc(S(=O)(=O)N3CCN(CC(OCC)c4ccccc4)CC3)cc12 (stereo not drawn) [Compound (4)]" qualitative_label=N
compound="CCOC(CN1CCN(S(=O)(=O)c2ccc3ncnc(N(C)Cc4ccccc4)c3c2)CC1)c1ccccc1 (stereo not drawn) [Compound (25)]" qualitative_label=Y

Criterion: LD50 strictly below 100 mg/kg. Is it met by CCOC(CN1CCN(S(=O)(=O)c2ccc3ncnc(N4CCCCC4)c3c2)CC1)c1ccccc1 (stereo not drawn) [Compound (6)] ?
N

Consider NCCCCNS(=O)(=O)c1ccc2ncnc(N3CCCCC3)c2c1 [Compound (31)] . Does its LD50 lie strictly below 100 mg/kg?
Y

Please state whether LD50 is below 100 mg/kg for O=S(=O)(c1ccc2ncnc(N3CCCCC3)c2c1)N1CCN(CC=Cc2ccccc2)CC1 [Compound (9)]
N

----------
System: mesenteric artery
Assay: Relaxation of Mesenteric Artery (isolated rabbit mesenteric artery contracted with KCl)
Conditions: Oryctolagus cuniculus, concentration for 50% relaxation, KCl 15~20 mM contraction, read-out: Relaxation of Mesenteric Artery ED50
Lab note - cut at 3 µM for EC50: True if strictly below, False if not.

Reference set (2 entries):
compound="CCCCN(CCCC)c1ncnc2ccc(S(=O)(=O)N3CCN(CC(OCC)c4ccccc4)CC3)cc12 (centres unmarked)" target_or_system="mesenteric artery" qualitative_label=True
compound="CCOC(CN1CCN(S(=O)(=O)c2ccc3ncnc(N(CC)CC)c3c2)CC1)c1ccccc1 (centres unmarked)" target_or_system="mesenteric artery" qualitative_label=False

Consider now this further compound.
Dear reviewer, please state whether CCN(CC)c1ncnc2ccc(S(=O)(=O)NCCCCN)cc12 has EC50 strictly beneath 3 µM.
False

----------
Tested on: mesenteric artery
Assay: Relaxation of Mesenteric Artery (isolated rabbit mesenteric artery contracted with KCl)
Conditions: Oryctolagus cuniculus, concentration for 50% relaxation, KCl 15~20 mM contraction, read-out: Relaxation of Mesenteric Artery ED50
Method: When, for example, 1-[4-(N-methyl-N-cyclohexylamino)-6-quinazolinesulfonyl]-4-(2-ethoxy-2-phenylethyl)piperazine was added and a complete relaxation was designated 100%, the concentration which could bring about a relaxation of 50%, i.e., ED50 was 0.8 μM. […]
value.type: EC50 (µM)
Give bare numbers, in µM.

Provide each entry's EC50 from the list below.
1. CN(C)c1ncnc2ccc(S(=O)(=O)NCCCCN)cc12
2. CC(C)OC(CN1CCN(S(=O)(=O)c2ccc3ncnc(N(C)C4CCCCC4)c3c2)CC1)c1ccccc1 (stereo not shown)
3. CC(C)OC(CN1CCN(S(=O)(=O)c2ccc3ncnc(N4CCCCC4)c3c2)CC1)c1ccccc1 (stereo not shown)
4. NCCCCCCCCCCNS(=O)(=O)c1ccc2ncnc(N3CCCCC3)c2c1
5. NCCCCNS(=O)(=O)c1ccc2ncnc(N3CCCC3)c2c1
6. CCOC(CN1CCN(S(=O)(=O)c2ccc3ncnc(N4CCOCC4)c3c2)CC1)c1ccccc1 (stereo not shown)

[54, 0.9, 2.2, 34, 27, 9.5]

Given the entry CCOC(CN1CCN(S(=O)(=O)c2ccc3ncnc(N(CC(C)C)C4CCCCC4)c3c2)CC1)c1ccccc1 (stereo not shown) , report its measured EC50.
2.5

----------
Field: EC50. Provide a value for each of the molecules that follow.
Tested on: mesenteric artery
Assay: Relaxation of Mesenteric Artery (isolated rabbit mesenteric artery contracted with KCl)
Settings: Oryctolagus cuniculus, concentration for 50% relaxation, KCl 15~20 mM contraction, read-out: Relaxation of Mesenteric Artery ED50
Give bare numbers, in nM.

molecule="CCOC(CN1CCN(S(=O)(=O)c2ccc3ncnc(N(C)C)c3c2)CC1)c1ccccc1 (centres unmarked) [Compound (2)]" unit_text=nM experimental_result=4500
molecule="CCOC(CN1CCN(S(=O)(=O)c2ccc3ncnc(Nc4ccccc4)c3c2)CC1)c1ccccc1 (centres unmarked) [Compound (16)]" unit_text=nM experimental_result=2700
molecule="CCOC(CN1CCN(S(=O)(=O)c2ccc3ncnc(N)c3c2)CC1)c1ccccc1 (centres unmarked) [Compound (1)]" unit_text=nM experimental_result=9800
molecule="CCOC(CN1CCN(S(=O)(=O)c2ccc3ncnc(N(C)C4CCCCC4)c3c2)CC1)c1ccccc1 (centres unmarked) [Compound (19)]" unit_text=nM experimental_result=800

What does the record list as EC50 for O=S(=O)(c1ccc2ncnc(N3CCCCC3)c2c1)N1CCN(CC=Cc2ccccc2)CC1 [Compound (9)] ?
3000
